Test: Mean residence time(0 to 24 hrs) in ICR mouse at 7.5 mg/kg, iv after 24 hrs by HPLC analysis
Assay type: ADME, organism-based
Conditions: in vivo
property: MRT last

For the compound shown here, C[C@@H]1[C@H](O)[C@@H](C)/C=C/C=C/C=C/C=C/C=C/C=C/C=C/[C@H](O[C@@H]2O[C@H](C)[C@@H](O)[C@H](N)[C@@H]2O)C[C@@H]2O[C@](O)(C[C@@H](O)C[C@@H](O)[C@H](O)CC[C@@H](O)C[C@@H](O)CC(=O)O[C@H]1C)C[C@H](O)[C@H]2C(=O)O [AMPHOTERICIN B] , give the reported MRT last.
9.66 h

---

Assay: Volume of distribution in ICR mouse at 7.5 mg/kg, iv after 24 hrs by HPLC analysis
Format: ADME, organism-based
Conditions: in vivo
property: Vd (L)
Return type: number; implicit unit L.

For the compound shown here, COC(=O)[C@H]1[C@@H]2C[C@@H](O[C@@H]3O[C@H](C)[C@@H](O)[C@H](NC(=O)CCOCCOCCOCCOCCOCCOCCOCCOCCN)[C@@H]3O)/C=C/C=C/C=C/C=C/C=C/C=C/C=C/[C@H](C)[C@@H](O)[C@@H](C)[C@H](C)OC(=O)C[C@H](O)C[C@H](O)CC[C@@H](O)[C@H](O)C[C@H](O)C[C@](O)(C[C@@H]1O)O2 , give the reported Vd.
0.002

---

Assay: Elimination half life in ICR mouse at 7.5 mg/kg, iv by HPLC analysis
Assay type: ADME, organism-based
Conditions: in vivo, read-out: beta t1/2 (converted)
property: half-life
Please report the result as a number followed by the unit.

For the molecule shown here, COC(=O)[C@H]1[C@@H]2C[C@@H](O[C@@H]3O[C@H](C)[C@@H](O)[C@H](NC(=O)CCOCCOCCOCCOCCOCCOCCOCCOCCN)[C@@H]3O)/C=C/C=C/C=C/C=C/C=C/C=C/C=C/[C@H](C)[C@@H](O)[C@@H](C)[C@H](C)OC(=O)C[C@H](O)C[C@H](O)CC[C@@H](O)[C@H](O)C[C@H](O)C[C@](O)(C[C@@H]1O)O2 , give the reported half-life.
3.15 h

---

Assay: Solubility of compound in saline by HPLC analysis
Format: physicochemical
property: solubility (µg/mL)
Return type: number; implicit unit µg/mL.

C[C@@H]1[C@H](O)[C@@H](C)/C=C/C=C/C=C/C=C/C=C/C=C/C=C/[C@H](O[C@@H]2O[C@H](C)[C@@H](O)[C@H](NC(=O)CCOCCOCCOCCOCCOCCOCCOCCOCCN)[C@@H]2O)C[C@@H]2O[C@](O)(C[C@@H](O)C[C@@H](O)[C@H](O)CC[C@@H](O)C[C@@H](O)CC(=O)O[C@H]1C)C[C@H](O)[C@H]2C(=O)O : 5500

Attention now shifts to the item below.
For the molecule shown here, COC(=O)[C@H]1[C@@H]2C[C@@H](O[C@@H]3O[C@H](C)[C@@H](O)[C@H](NC(=O)CCOCCOCCOCCOCCOCCOCCOCCOCCN)[C@@H]3O)/C=C/C=C/C=C/C=C/C=C/C=C/C=C/[C@H](C)[C@@H](O)[C@@H](C)[C@H](C)OC(=O)C[C@H](O)C[C@H](O)CC[C@@H](O)[C@H](O)C[C@H](O)C[C@](O)(C[C@@H]1O)O2 , give the reported solubility.
700

---

Test: Chemical stability of compound in phosphate buffer saline assessed as hydrolysis after 24 hrs by HPLC analysis
Assay type: physicochemical
Conditions: read-out: Drug degradation
Item-by-item account of degraded at 24 h
Please report the result as a number followed by the unit.

For the molecule shown here, C[C@@H]1[C@H](O)[C@@H](C)/C=C/C=C/C=C/C=C/C=C/C=C/C=C/[C@H](O[C@@H]2O[C@H](C)[C@@H](O)[C@H](NC(=O)CCOCCOCCOCCOCCOCCOCCOCCOCCN)[C@@H]2O)C[C@@H]2O[C@](O)(C[C@@H](O)C[C@@H](O)[C@H](O)CC[C@@H](O)C[C@@H](O)CC(=O)O[C@H]1C)C[C@H](O)[C@H]2C(=O)O , give the reported degraded at 24 h.
0.5%

For the molecule shown here, COC(=O)[C@H]1[C@@H]2C[C@@H](O[C@@H]3O[C@H](C)[C@@H](O)[C@H](NC(=O)CCOCCOCCOCCOCCOCCOCCOCCOCCN)[C@@H]3O)/C=C/C=C/C=C/C=C/C=C/C=C/C=C/[C@H](C)[C@@H](O)[C@@H](C)[C@H](C)OC(=O)C[C@H](O)C[C@H](O)CC[C@@H](O)[C@H](O)C[C@H](O)C[C@](O)(C[C@@H]1O)O2 , give the reported degraded at 24 h.
0.8%

---

Assay: Elimination rate constant in ICR mouse at 7.5 mg/kg, iv by HPLC analysis
Assay type: ADME, organism-based
Details: in vivo
property: k el (s⁻¹)
Return type: number; implicit unit s⁻¹.

For the compound shown here, COC(=O)[C@H]1[C@@H]2C[C@@H](O[C@@H]3O[C@H](C)[C@@H](O)[C@H](NC(=O)CCOCCOCCOCCOCCOCCOCCOCCOCCN)[C@@H]3O)/C=C/C=C/C=C/C=C/C=C/C=C/C=C/[C@H](C)[C@@H](O)[C@@H](C)[C@H](C)OC(=O)C[C@H](O)C[C@H](O)CC[C@@H](O)[C@H](O)C[C@H](O)C[C@](O)(C[C@@H]1O)O2 , give the reported k el.
6.11e-05

---

Test: Fraction unbound in ICR mouse plasma by HPLC analysis
Assay type: ADME, cell-free
property: fraction unbound
Just the number, please, no unit after it.

C[C@@H]1[C@H](O)[C@@H](C)/C=C/C=C/C=C/C=C/C=C/C=C/C=C/[C@H](O[C@@H]2O[C@H](C)[C@@H](O)[C@H](N)[C@@H]2O)C[C@@H]2O[C@](O)(C[C@@H](O)C[C@@H](O)[C@H](O)CC[C@@H](O)C[C@@H](O)CC(=O)O[C@H]1C)C[C@H](O)[C@H]2C(=O)O [AMPHOTERICIN B] : 0.11

Attention now shifts to the item below.
For the compound shown here, COC(=O)[C@H]1[C@@H]2C[C@@H](O[C@@H]3O[C@H](C)[C@@H](O)[C@H](NC(=O)CCOCCOCCOCCOCCOCCOCCOCCOCCN)[C@@H]3O)/C=C/C=C/C=C/C=C/C=C/C=C/C=C/[C@H](C)[C@@H](O)[C@@H](C)[C@H](C)OC(=O)C[C@H](O)C[C@H](O)CC[C@@H](O)[C@H](O)C[C@H](O)C[C@](O)(C[C@@H]1O)O2 , give the reported fraction unbound.
0.9

---

Test: AUC(0 to 24 hrs) in ICR mouse at 7.5 mg/kg, iv after 24 hrs by HPLC analysis
Format: ADME, organism-based
Parameters: time < 24 hr, dose 7.5 mg/kg, route intravenous
Conditions: in vivo
property: AUC(0-t) at 24 h (µg·h/mL)
Return type: number; implicit unit µg·h/mL.

For the compound shown here, COC(=O)[C@H]1[C@@H]2C[C@@H](O[C@@H]3O[C@H](C)[C@@H](O)[C@H](NC(=O)CCOCCOCCOCCOCCOCCOCCOCCOCCN)[C@@H]3O)/C=C/C=C/C=C/C=C/C=C/C=C/C=C/[C@H](C)[C@@H](O)[C@@H](C)[C@H](C)OC(=O)C[C@H](O)C[C@H](O)CC[C@@H](O)[C@H](O)C[C@H](O)C[C@](O)(C[C@@H]1O)O2 , give the reported AUC(0-t) at 24 h.
421

---

Item-by-item account of MTD
Assay: Toxicity in iv dosed ICR mouse
Assay type: organism-based
Conditions: in vivo
Return type: number; implicit unit mg/kg.

For the compound shown here, C[C@@H]1[C@H](O)[C@@H](C)/C=C/C=C/C=C/C=C/C=C/C=C/C=C/[C@H](O[C@@H]2O[C@H](C)[C@@H](O)[C@H](NC(=O)CCOCCOCCOCCOCCOCCOCCOCCOCCN)[C@@H]2O)C[C@@H]2O[C@](O)(C[C@@H](O)C[C@@H](O)[C@H](O)CC[C@@H](O)C[C@@H](O)CC(=O)O[C@H]1C)C[C@H](O)[C@H]2C(=O)O , give the reported MTD.
22

For the compound shown here, COC(=O)[C@H]1[C@@H]2C[C@@H](O[C@@H]3O[C@H](C)[C@@H](O)[C@H](NC(=O)CCOCCOCCOCCOCCOCCOCCOCCOCCN)[C@@H]3O)/C=C/C=C/C=C/C=C/C=C/C=C/C=C/[C@H](C)[C@@H](O)[C@@H](C)[C@H](C)OC(=O)C[C@H](O)C[C@H](O)CC[C@@H](O)[C@H](O)C[C@H](O)C[C@](O)(C[C@@H]1O)O2 , give the reported MTD.
42

For the compound shown here, C[C@@H]1[C@H](O)[C@@H](C)/C=C/C=C/C=C/C=C/C=C/C=C/C=C/[C@H](O[C@@H]2O[C@H](C)[C@@H](O)[C@H](N)[C@@H]2O)C[C@@H]2O[C@](O)(C[C@@H](O)C[C@@H](O)[C@H](O)CC[C@@H](O)C[C@@H](O)CC(=O)O[C@H]1C)C[C@H](O)[C@H]2C(=O)O , give the reported MTD.
1.1

FYI, the data here is from ChEMBL document CHEMBL3785075.
